- Assay Name: qHTS for induction of synthetic lethality in tumor cells producing 2HG: qHTS for the HT-1080-NT fibrosarcoma cell line
- Condition Label: HT-1080-NT fibrosarcoma viability, CellTiter-Glo ATP luminescence, 48 h; series mostly up to 46.1 µM
Hit rate of the full screen: of about 360,000 compounds, about 6,000 (1.7%) were called active. Not shown: some 8% with an inconclusive outcome. Calls follow the shape of the dose curve; as a rule, active = well fitted cell-killing curve with a large enough effect; inconclusive = small, poorly fitted or top-dose-only effect, or effect the other way; inactive = flat fitted curve, though single readings scatter. Many of the other results were omitted from the sample, so actives are more common in it than they were.
Parameter call: string, one of active, inactive

COc1ccc(S(=O)(=O)N2CCC(C(=O)NCCC(=O)NCCc3cccc(F)c3)CC2)cc1
inactive

Prompt: What call does the record list for COc1ccc(-c2c(-c3ccc(OC)cc3O)nc(C)nc2C(F)(F)F)cc1 ?
Completion: inactive

Prompt: Also need COc1ccc(CS(=O)/C(Cl)=C(/Cl)C(=O)Nc2ccc(OC)nc2)cc1 (stereo unspecified) , thanks.
Completion: active

Prompt: Also need Fc1cnc(N2CCOCC2)nc1NCc1ccccc1 , thanks.
Completion: inactive

---

- Assay Name: qHTS for induction of synthetic lethality in tumor cells producing 2HG: qHTS for the HT-1080-NT fibrosarcoma cell line
- Condition Label: HT-1080-NT fibrosarcoma viability, CellTiter-Glo ATP luminescence, 48 h; series mostly up to 46.1 µM
Screen size: about 360,000 compounds; about 6,000 (1.7%) were called active. Inconclusive results (about 8%) are left out. Calls come from the whole dose curve; as a rule, active = well fitted cell-killing curve with a large enough effect; inconclusive = small, poorly fitted or top-dose-only effect, or effect the other way; inactive = flat fitted curve, though single readings scatter. This excerpt belongs to a sample that is enriched for actives.
Parameter call: string, one of active, inactive

O=C(Nc1ccc(F)cc1)C1CCN(C(=O)c2ccc([N+](=O)[O-])cc2)CC1
inactive

Prompt: What call does the record list for CC1(C(=O)NCc2ccc3c(c2)OCO3)CCN1C(=O)Cc1cccc2ccccc12 (stereo unspecified) ?
Completion: inactive

Prompt: Also need O=C(CCc1ccccc1Cl)Nc1ccc(S(=O)(=O)Nc2nccs2)cc1 , thanks.
Completion: inactive

Prompt: Also need Cc1ccc(C(=O)Nc2nc3ccc(Cl)cc3s2)o1 , thanks.
Completion: inactive

Prompt: Also need O=C(O)C1CCCN1c1nc(Cl)ccc1[N+](=O)[O-] (stereo unspecified) , thanks.
Completion: inactive

Prompt: Also need COc1ccc(-c2ccc(C(=O)NCCN3CCOCC3)c3occc23)c(C)c1 , thanks.
Completion: active

Prompt: Also need CCc1ccc(OCC2c3cc(OC)c(OC)cc3CCN2C(C)=O)cc1 (stereo unspecified) , thanks.
Completion: active

---

- Assay Name: qHTS for induction of synthetic lethality in tumor cells producing 2HG: qHTS for the HT-1080-NT fibrosarcoma cell line;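 also: NT is the 2HG producing partner of a matched IDH1 knockdown line; nearly all actives have a fitted effect of over 55% in size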
- Condition Label: HT-1080-NT fibrosarcoma viability, CellTiter-Glo ATP luminescence, 48 h; series mostly up to 46.1 µM
The whole screen tested about 360,000 compounds, of which about 6,000 (1.7%) were called active. Another 8% or so got no clear call; they are omitted. The call rests on the fitted dose curve; in most records, active means well fitted cell-killing curve with a large enough effect; inconclusive means small, poorly fitted or top-dose-only effect, or effect the other way; inactive means flat fitted curve, though single readings scatter. Only a selection was taken, and actives are over-represented in it overall.
Parameter call: string, one of active, inactive

# example entries with known answers
O=C(Nc1nnc(S(=O)(=O)N2CCOCC2)s1)c1cccc(Br)c1
inactive
Cc1ccc(C=O)c([B-](F)(F)F)c1
inactive
O=C(NCc1cccnc1)c1ccc2nc([C@@H]3O[C@H](CO)[C@H](O)[C@H](O)[C@H]3O)[nH]c2c1
inactive
Cc1cccc(C(=O)Nc2nnc(S(=O)(=O)N3CCCCCC3)s2)c1
inactive
Nc1c(C(=O)Nc2ccc3c(c2)OCCO3)nnn1Cc1ccccc1
inactive

Prompt: What call does the record list for Oc1c(Cl)cc(Cl)c(Cl)c1Cc1c(O)c(Cl)cc(Cl)c1Cl ?
Completion: active

Prompt: Also need CCCCCCN1CCN(C2CN(Cc3cn(Cc4ccc(F)cc4)nn3)S(=O)(=O)C2)CC1 (stereo unspecified) , thanks.
Completion: inactive

Prompt: Also need O=C(NCC(O)c1nc2ccccc2[nH]1)c1ccc(Br)cc1 (stereo unspecified) , thanks.
Completion: inactive

Prompt: Also need O=C(COc1cccc(Cl)c1)NCc1ccccc1 , thanks.
Completion: inactive

Prompt: Also need CC1(C)OC(=O)C2=C(C[C@@H](C3CC3)O[C@H]2CCc2cccc(Cl)c2)O1 , thanks.
Completion: inactive

Prompt: Also need Cc1cc(Br)cn2c(Cc3ccccc3C(F)(F)F)c(C3CCCCC3)nc12 , thanks.
Completion: inactive

---

- Assay Name: qHTS for induction of synthetic lethality in tumor cells producing 2HG: qHTS for the HT-1080-NT fibrosarcoma cell line;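 also: NT is the 2HG producing partner of a matched IDH1 knockdown line; nearly all actives have a fitted effect of over 55% in size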; also: potency is read from the fitted curve at half-maximal effect
- Condition Label: HT-1080-NT fibrosarcoma viability, CellTiter-Glo ATP luminescence, 48 h; series mostly up to 46.1 µM
The campaign covered roughly 360,000 compounds. About 6,000 (1.7%) were called active. About 8% were inconclusive and are not listed. The sample holds actives, similar compounds and a random draw of the others, so the mix is not that of the screen.
Result Type: Potency

COCCNc1nc(Nc2ccccc2Cl)c2sc(-c3ccccc3)cc2n1
inactive
COc1cccc(-c2cc(NC(C)=O)c3ncc(-c4cccc(C(C)=O)c4)n3c2)c1
inactive
COc1ccccc1-c1cc(NC(C)=O)c2ncc(-c3ccc(F)cc3)n2c1
inactive
CC(=O)c1cccc(-c2cnc3c(NC=O)cc(-c4cccc(C(=O)N(C)C)c4)cn23)c1
inactive
CN(C)CCNC(=O)c1cccc(-c2cnc3c(NC=O)cc(-c4cccc(C(F)(F)F)c4)cn23)c1
20.6 µM (active)

Working through the 4 compounds below one at a time, give Potency for each.
1. CC(=O)c1cccc(-c2cnc3c(NC=O)cc(-c4ccc(N5CCN(C)CC5)cc4)cn23)c1
2. CC(=O)c1cccc(-c2cnc3c(NC=O)cc(-c4ccccc4Oc4ccccc4)cn23)c1
3. CC(=O)Nc1cc(-c2cccc(CO)c2)cn2c(-c3cccc(C(F)(F)F)c3)cnc12
4. CC(=O)Nc1ccc(CNc2nc(NCCN(C)C)nc3cc(-c4ccccc4)sc23)cc1

Completion:
1. inactive
2. inactive
3. inactive
4. 11.6 µM (active)

---

- Assay Name: qHTS for induction of synthetic lethality in tumor cells producing 2HG: qHTS for the HT-1080-NT fibrosarcoma cell line;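 also: NT is the 2HG producing partner of a matched IDH1 knockdown line; nearly all actives have a fitted effect of over 55% in size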
- Condition Label: HT-1080-NT fibrosarcoma viability, CellTiter-Glo ATP luminescence, 48 h; series mostly up to 46.1 µM
Out of some 360,000 compounds screened, about 6,000 (1.7%) were called active. Another 8% or so got no clear call; they are omitted. Calls come from the whole dose curve; as a rule, active = well fitted cell-killing curve with a large enough effect; inconclusive = small, poorly fitted or top-dose-only effect, or effect the other way; inactive = flat fitted curve, though single readings scatter. This excerpt belongs to a sample that is enriched for actives.
Parameter call: string, one of active, inactive

# example entries with known answers
COc1cccc(/C=N/Nc2cc(C)nc(-c3ccccc3O)n2)c1O
active
CCOc1ccc(NC(=O)CSc2nnc3c(n2)[nH]c2ccc(S(=O)(=O)N4CCOCC4)cc23)cc1
inactive

Prompt: What call does the record list for COc1cc(C(C)=O)ccc1OC(C)C(=O)Nc1ccc(S(=O)(=O)N2CCCC2)cc1 (configuration not stated) ?
Completion: inactive

Prompt: Also need OCCc1ccc(NCCc2ccco2)cc1 , thanks.
Completion: inactive

Prompt: Also need O=C(c1cc(-c2ccc(O)cc2)on1)N1CCCc2ccccc21 , thanks.
Completion: inactive

Prompt: Also need COc1ccc(-c2ccc(Nc3ccc(S(=O)(=O)N4CCCC4)cc3)nn2)cc1OC , thanks.
Completion: active

Prompt: Also need CC(=O)NC(c1ccccc1)c1nc(-c2ccccc2C)cs1 (configuration not stated) , thanks.
Completion: inactive

Prompt: Also need O=c1[nH]c2ccccc2n1C1CCN(CCOc2ccccc2)CC1 , thanks.
Completion: inactive

---

- Assay Name: qHTS for induction of synthetic lethality in tumor cells producing 2HG: qHTS for the HT-1080-NT fibrosarcoma cell line;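 also: NT is the 2HG producing partner of a matched IDH1 knockdown line; nearly all actives have a fitted effect of over 55% in size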
- Condition Label: HT-1080-NT fibrosarcoma viability, CellTiter-Glo ATP luminescence, 48 h; series mostly up to 46.1 µM
In all, about 360,000 compounds went through this assay and about 6,000 (1.7%) were called active. About 8% were inconclusive and are not listed. Calls follow the shape of the dose curve; as a rule, active = well fitted cell-killing curve with a large enough effect; inconclusive = small, poorly fitted or top-dose-only effect, or effect the other way; inactive = flat fitted curve, though single readings scatter. For the sample, actives were picked, then their nearest neighbours and some compounds at random.
Parameter call: string, one of yes (1) = active, no (0) = inactive

CNC(=O)C[C@H]1C(=O)N(Cc2ccccc2)C[C@@H]1CSC
no (0)
CC1(C(=O)Nc2ccc3c(c2)OCCO3)CN(S(C)(=O)=O)CC(=O)N1Cc1cccc(F)c1 (stereo unspecified)
no (0)
C[C@@H]1CN([C@H](C)CO)S(=O)(=O)c2ccc(C#CC3CCCCC3)cc2O[C@H]1CN(C)C(=O)Cc1ccncc1
no (0)
Cn1nccc1NC(=O)Nc1ccc(OC(F)(F)F)cc1
no (0)
Oc1ccc(-c2nc3ccccc3nc2-c2ccc(O)cc2O)c(O)c1
no (0)

Prompt: What call does the record list for CC1CN(C(=O)c2cccc(NS(=O)(=O)c3ccc(Br)cc3)c2)CC(C)O1 (stereo unspecified) ?
Completion: no (0)

Prompt: Also need CC[C@@H]1CC2=C(C(=O)OC(C)(C)O2)[C@@H](CC)O1 , thanks.
Completion: no (0)

Prompt: Also need Cc1ccc(-n2c(SCC(=O)N/N=C/C=C/c3ccccc3[N+](=O)[O-])nc3ccccc3c2=O)cc1 , thanks.
Completion: no (0)

Prompt: Also need Cc1ccccc1NC(=O)NCC1CCN(Cc2cccc(Cl)c2)CC1 , thanks.
Completion: no (0)

Prompt: Also need O=C(NCC1CCN(Cc2ccccc2Cl)CC1)Nc1cccc(Cl)c1 , thanks.
Completion: no (0)

Prompt: Also need COc1ccc([C@H]2C[C@@H](n3cc(COC(=O)c4ccccc4)nn3)[C@H](O)CN2C(=O)c2cccs2)cc1 , thanks.
Completion: no (0)

Prompt: Also need CN(C)CCNC(=O)Nc1cccc(Cl)c1Cl , thanks.
Completion: no (0)

Prompt: Also need CC1(C(=O)Nc2cccc3c2CCCC3)CCN1C(=O)CCc1ccc(Cl)cc1Cl (stereo unspecified) , thanks.
Completion: no (0)

Prompt: Also need O=S1(=O)CC(N2CCC(Cc3ccccc3)CC2)CN1Cc1ccccc1 (stereo unspecified) , thanks.
Completion: no (0)

Prompt: Also need O=C(NOCc1ccccc1)c1cccc([N+](=O)[O-])c1 , thanks.
Completion: no (0)

Prompt: Also need COc1cc2c(cc1OC)CN(C(=O)c1cc(=O)c3ccccc3o1)CC2 , thanks.
Completion: yes (1)

Prompt: Also need Cc1onc(-c2ccccc2)c1-c1nnc(COC(=O)c2ccc(N(C)C)cc2)o1 , thanks.
Completion: no (0)
